All figures here come from patent US20170239323A1.

- protocol.description: Pharmacokinetics in ABSSSI patients after single 1200 mg IV oritavancin (ORBACTIV) in 1000 mL D5W
- Format: in vivo, human
- stated.conditions: both sexes, human, plasma, iv, 1200 mg, mean, ABSSSI subjects, single 1200 mg IV dose over 3 hours (n = 297); read-out: T1/2,γ (converted)
- Method: Oritavancin (as ORBACTIV®) was evaluated in double-blind, controlled ABSSSI clinical trials, which included 976 adult patients treated with a single 1200 mg intravenous dose of oritavancin in 1000 mL D5W. […] The formulation was administered to each subject intravenously over 3 hours, and PK was measured (Table 20). […] Safety was evaluated for up to 60 days after dosing.
assay.readout: half-life (days)
Reply numerically in days, unit not repeated.

Prompt: Give its half-life value. Item: CN[C@H](CC(C)C)C(=O)N[C@H]1C(=O)N[C@@H](CC(N)=O)C(=O)N[C@H]2C(=O)N[C@H]3C(=O)N[C@H](C(=O)N[C@H](C(=O)O)c4cc(O)cc(O)c4-c4cc3ccc4O)[C@H](O[C@H]3C[C@](C)(N)[C@@H](O)[C@H](C)O3)c3ccc(c(Cl)c3)Oc3cc2cc(c3O[C@@H]2O[C@H](CO)[C@@H](O)[C@H](O)[C@H]2O[C@H]2C[C@](C)(NCc3ccc(-c4ccc(Cl)cc4)cc3)[C@@H](O)[C@H](C)O2)Oc2ccc(cc2Cl)[C@H]1O [Oritavancin]
Completion: 10.2

====

- protocol.description: Pharmacokinetics in ABSSSI patients after single 1200 mg IV oritavancin (ORBACTIV) in 1000 mL D5W
- Assay type: in vivo, human
- stated.conditions: both sexes, human, plasma; per Orbactiv Package Insert (Comparative Example 4): 1200 mg IV, D5W, 3 h infusion
assay.readout: AUC(0-inf) (µg·h/mL)
Reply numerically in µg·h/mL, unit not repeated.

Prompt: Give its AUC(0-inf) value. Item: CN[C@H](CC(C)C)C(=O)N[C@H]1C(=O)N[C@@H](CC(N)=O)C(=O)N[C@H]2C(=O)N[C@H]3C(=O)N[C@H](C(=O)N[C@H](C(=O)O)c4cc(O)cc(O)c4-c4cc3ccc4O)[C@H](O[C@H]3C[C@](C)(N)[C@@H](O)[C@H](C)O3)c3ccc(c(Cl)c3)Oc3cc2cc(c3O[C@@H]2O[C@H](CO)[C@@H](O)[C@H](O)[C@H]2O[C@H]2C[C@](C)(NCc3ccc(-c4ccc(Cl)cc4)cc3)[C@@H](O)[C@H](C)O2)Oc2ccc(cc2Cl)[C@H]1O
Completion: 2800

====

- protocol.description: Double-blind pharmacokinetic study of a single 1200 mg IV dose of oritavancin in healthy volunteers
- Format: in vivo
- stated.conditions: human, plasma, Cohort 4: 1200 mg IV, HPBCD formulation, D5W 250 mL, 1 h infusion, healthy subjects, average
assay.readout: AUC(0-inf) (µg·h/mL)
Reply numerically in µg·h/mL, unit not repeated.

Prompt: Give its AUC(0-inf) value. Item: CN[C@H](CC(C)C)C(=O)N[C@H]1C(=O)N[C@@H](CC(N)=O)C(=O)N[C@H]2C(=O)N[C@H]3C(=O)N[C@H](C(=O)N[C@H](C(=O)O)c4cc(O)cc(O)c4-c4cc3ccc4O)[C@H](O[C@H]3C[C@](C)(N)[C@@H](O)[C@H](C)O3)c3ccc(c(Cl)c3)Oc3cc2cc(c3O[C@@H]2O[C@H](CO)[C@@H](O)[C@H](O)[C@H]2O[C@H]2C[C@](C)(NCc3ccc(-c4ccc(Cl)cc4)cc3)[C@@H](O)[C@H](C)O2)Oc2ccc(cc2Cl)[C@H]1O
Completion: 2870
